Target: HLA-B*40:01
Assay: IEDB peptide-MHC binding, purified MHC/direct/fluorescence; filed as Kd, often an IC50 or EC50 that approximates it; bounds were set here for any values at or beyond the usual limits of such assays
Conditions: source organism: Influenza A virus (A/Hong Kong/516/97(H5N1))
pKd: −log10 of the molar value.
QUANTITY KIND: pKd

1. SYINRTGTF; ≤ 4.70

* * *

Target: HLA-A*11:01
Experiment: IEDB peptide-MHC binding, purified MHC/direct/fluorescence; filed as Kd, often an IC50 or EC50 that approximates it; bounds were set here for any values at or beyond the usual limits of such assays
Settings: source organism: Vibrio cholerae
pKd: −log10 of the molar value.
QUANTITY KIND: pKd

1. MMFDAMGAL; 5.03

* * *

Target: HLA-A*02:06
Assay: IEDB peptide-MHC binding, purified MHC/competitive/fluorescence; filed as Kd, often an IC50 or EC50 that approximates it; bounds were set here for any values at or beyond the usual limits of such assays
Conditions: source organism: Orthomarburgvirus marburgense
QUANTITY KIND: Kd

1) LEHGLYPQL; ≥ 20 µM

* * *

Target: HLA-A*24:02
Experiment: IEDB peptide-MHC binding, purified MHC/competitive/fluorescence; bounds were set here for any values at or beyond the usual limits of such assays
Settings: source organism: Vaccinia virus Copenhagen
pIC50: −log10 of the molar value.
QUANTITY KIND: pIC50

1. VYGNIKHKE; 4.46

* * *

Biological target: HLA-A*03:01
Assay: IEDB peptide-MHC binding, purified MHC/competitive/fluorescence; filed as Kd, often an IC50 or EC50 that approximates it; bounds were set here for any values at or beyond the usual limits of such assays
Conditions: source organism: Coxiella burnetii 'MSU Goat Q177'
QUANTITY KIND: Kd

1. AVDWYQQRI; ≥ 20 µM

* * *

Target: HLA-C*07:02
Experiment: IEDB peptide-MHC binding, purified MHC/direct/fluorescence; filed as Kd, often an IC50 or EC50 that approximates it; bounds were set here for any values at or beyond the usual limits of such assays
Settings: source organism: Hantaan virus 76-118
QUANTITY KIND: Kd

1) SMLSYGNVL; 614 nM

* * *

Biological target: HLA-B*58:01
Assay: IEDB peptide-MHC binding, purified MHC/direct/fluorescence; filed as Kd, often an IC50 or EC50 that approximates it; bounds were set here for any values at or beyond the usual limits of such assays
Details: source organism: Influenza A virus (A/tiger/Thailand/CU-T4/04(H5N1))
pKd: −log10 of the molar value.
QUANTITY KIND: pKd

1) TMLYNKMEF; ≤ 4.70

* * *

Molecular target: HLA-B*58:01
Assay: IEDB peptide-MHC binding, purified MHC/competitive/fluorescence; filed as Kd, often an IC50 or EC50 that approximates it; bounds were set here for any values at or beyond the usual limits of such assays
Conditions: source organism: Vibrio vulnificus CMCP6
pKd: −log10 of the molar value.
QUANTITY KIND: pKd

1. KQIVIINPM; ≤ 5.30

* * *

Target: HLA-B*15:01
Test: IEDB peptide-MHC binding, purified MHC/competitive/radioactivity; filed as Kd, often an IC50 or EC50 that approximates it; bounds were set here for any values at or beyond the usual limits of such assays
Details: source organism: Vaccinia virus Copenhagen
pKd: −log10 of the molar value.
QUANTITY KIND: pKd

1) MVYKLVLLF; 7.15

* * *

Target: HLA-B*54:01
Experiment: IEDB peptide-MHC binding, purified MHC/competitive/radioactivity; filed as Kd, often an IC50 or EC50 that approximates it; bounds were set here for any values at or beyond the usual limits of such assays
Conditions: source organism: SARS coronavirus Tor2
pKd: −log10 of the molar value.
QUANTITY KIND: pKd

1. TPRDLGACI; 5.41

* * *

Molecular target: HLA-C*14:02
Experiment: IEDB peptide-MHC binding, purified MHC/direct/fluorescence; filed as Kd, often an IC50 or EC50 that approximates it; bounds were set here for any values at or beyond the usual limits of such assays
Conditions: source organism: Homo sapiens
QUANTITY KIND: Kd

1. FPHTELANL; 792 nM

* * *

Target: HLA-A*30:02
Experiment: IEDB peptide-MHC binding, purified MHC/competitive/radioactivity; filed as Kd, often an IC50 or EC50 that approximates it; bounds were set here for any values at or beyond the usual limits of such assays
Conditions: source organism: Dengue virus 3 Sri Lanka/1266/2000
QUANTITY KIND: Kd

1. LLIVSGIFPY; ≥ 60 µM

* * *

Molecular target: HLA-B*27:05
Test: IEDB peptide-MHC binding, purified MHC/direct/fluorescence; filed as Kd, often an IC50 or EC50 that approximates it; bounds were set here for any values at or beyond the usual limits of such assays
Conditions: source organism: Vibrio vulnificus YJ016
QUANTITY KIND: Kd

1. EPADHLAIM; ≥ 20 µM

* * *

Target: HLA-A*69:01
Experiment: IEDB peptide-MHC binding, purified MHC/direct/fluorescence; filed as Kd, often an IC50 or EC50 that approximates it; bounds were set here for any values at or beyond the usual limits of such assays
Details: source organism: Coxiella burnetii
pKd: −log10 of the molar value.
QUANTITY KIND: pKd

1. WAPEGDIRL; ≤ 4.70
2. YYYNFSEDL; ≤ 4.70

* * *

Target: HLA-B*48:01
Assay: IEDB peptide-MHC binding, purified MHC/direct/fluorescence; filed as Kd, often an IC50 or EC50 that approximates it; bounds were set here for any values at or beyond the usual limits of such assays
Details: source organism: Cowpox virus
pKd: −log10 of the molar value.
QUANTITY KIND: pKd

1. YHRPLTGYM; ≤ 4.70

* * *

Target: HLA-A*03:01
Assay: IEDB peptide-MHC binding, purified MHC/competitive/fluorescence; bounds were set here for any values at or beyond the usual limits of such assays
Details: source organism: Zaire ebolavirus
pIC50: −log10 of the molar value.
Readings of pIC50 for the listed sequences
QUANTITY KIND: pIC50

1) TSPQSLTTK; 4.65
2) FLILPQAKK; 5.36

* * *

Target: HLA-A*02:03
Assay: IEDB peptide-MHC binding, purified MHC/competitive/radioactivity; filed as Kd, often an IC50 or EC50 that approximates it; bounds were set here for any values at or beyond the usual limits of such assays
Conditions: source organism: Dengue virus 3 Martinique/1243/1999
pKd: −log10 of the molar value.
Property: pKd; scope: individual sequences
QUANTITY KIND: pKd

1. SMINGVVKL; 7.74
2. MLKRVRNRV; 7.84

* * *

Target: HLA-B*15:17
Assay: IEDB peptide-MHC binding, purified MHC/direct/fluorescence; filed as Kd, often an IC50 or EC50 that approximates it; bounds were set here for any values at or beyond the usual limits of such assays
Settings: source organism: West Nile virus
QUANTITY KIND: Kd (nM)

1) KSFLVHREW; 5.7

* * *

Kd reference
Target: HLA-B*40:01
Assay: IEDB peptide-MHC binding, purified MHC/direct/fluorescence; filed as Kd, often an IC50 or EC50 that approximates it; bounds were set here for any values at or beyond the usual limits of such assays
Settings: source organism: Escherichia coli O157:H7
QUANTITY KIND: Kd

1. GMAEDLQSL; ≥ 20 µM
2. IRNPPMVVF; ≥ 20 µM
3. REWGWRIPF; ≤ 0.001 µM

* * *

Biological target: HLA-A*03:01
Test: IEDB peptide-MHC binding, purified MHC/direct/fluorescence; filed as Kd, often an IC50 or EC50 that approximates it; bounds were set here for any values at or beyond the usual limits of such assays
Conditions: source organism: Vibrio cholerae
QUANTITY KIND: Kd (nM)

1) MMFDAMGAL; 1460

* * *

Catalogue of pKd readings, one per entry.
Molecular target: HLA-A*31:01
Assay: IEDB peptide-MHC binding, purified MHC/direct/fluorescence; filed as Kd, often an IC50 or EC50 that approximates it; bounds were set here for any values at or beyond the usual limits of such assays
Settings: source organism: Mycobacterium tuberculosis
pKd: −log10 of the molar value.
QUANTITY KIND: pKd

1. WMRGRGRAL; ≤ 4.70
2. FHSRFVQAL; ≤ 4.70
3. WEITYLGTT; ≤ 4.70

* * *

Target: HLA-A*69:01
Test: IEDB peptide-MHC binding, purified MHC/direct/fluorescence; filed as Kd, often an IC50 or EC50 that approximates it; bounds were set here for any values at or beyond the usual limits of such assays
Conditions: source organism: Cowpox virus
QUANTITY KIND: Kd

1. YHRPLTGYM; ≥ 20 µM
2. VYSFDESSF; ≥ 20 µM

* * *

Target: HLA-A*68:02
Experiment: IEDB peptide-MHC binding, purified MHC/direct/fluorescence; filed as Kd, often an IC50 or EC50 that approximates it; bounds were set here for any values at or beyond the usual limits of such assays
Conditions: source organism: Orthohantavirus andesense
QUANTITY KIND: Kd

1) VFTSRIQVI; ≥ 20 µM
